Source of measurements: ChEMBL document CHEMBL1147003

Recorded pIC50 by entry
Test system: Plasmodium falciparum
Experiment: Antimalarial activity against Plasmodium falciparum
Type: functional, organism-based
Settings: Plasmodium falciparum
To interpret pIC50, take it as minus log10 of a concentration measured in moles per litre.

Consider the reported pIC50 for these compounds:
>  <Compound>
Cc1ccc(S(=O)(=O)OC[C@H]2CO[C@@](CCc3ccc(Cl)cc3)(Cn3ccnc3)O2)cc1

>  <Assay result>
5.72

$$$$
>  <Compound>
CSC[C@@H]1CO[C@@](CCc2ccc(Cl)cc2)(Cn2ccnc2)O1.Cl

>  <Assay result>
5.68

$$$$
>  <Compound>
Cl.Clc1ccc(CCC2(Cn3ccnc3)SCCS2)cc1

>  <Assay result>
5.64

$$$$
>  <Compound>
Cl.Nc1ccccc1SC[C@H]1CO[C@](CCc2ccc(Cl)cc2)(Cn2ccnc2)O1

>  <Assay result>
5.48

$$$$
>  <Compound>
CCC(COC(C)=O)n1ccnc1 (stereo not given)

>  <Assay result>
5.08

$$$$

Next compound, please.
Query: Supply pIC50 value. Item: C[C@@H]1CO[C@@](CCc2ccc(Cl)cc2)(Cn2ccnc2)O1.Cl
Reply: 5.15
